Would you mind telling me the reported A1 activation, % of agonist value of each entry?
target: human TRPA1 (Homo sapiens, UniProt O75762, K186N/R3C/R58T); construct: expressed in transfected cells; pcDNA3 control cells; experiment: Intracellular calcium (Fluo-4, FLIPR) activation of TRPA1 cells by GRAS compounds; format: cell-based; details: Table 1(a); 1 mM; relative to AITC 30 μM; average of three plates
Sequence (O75762 whole entry R3C/R58T/K186N): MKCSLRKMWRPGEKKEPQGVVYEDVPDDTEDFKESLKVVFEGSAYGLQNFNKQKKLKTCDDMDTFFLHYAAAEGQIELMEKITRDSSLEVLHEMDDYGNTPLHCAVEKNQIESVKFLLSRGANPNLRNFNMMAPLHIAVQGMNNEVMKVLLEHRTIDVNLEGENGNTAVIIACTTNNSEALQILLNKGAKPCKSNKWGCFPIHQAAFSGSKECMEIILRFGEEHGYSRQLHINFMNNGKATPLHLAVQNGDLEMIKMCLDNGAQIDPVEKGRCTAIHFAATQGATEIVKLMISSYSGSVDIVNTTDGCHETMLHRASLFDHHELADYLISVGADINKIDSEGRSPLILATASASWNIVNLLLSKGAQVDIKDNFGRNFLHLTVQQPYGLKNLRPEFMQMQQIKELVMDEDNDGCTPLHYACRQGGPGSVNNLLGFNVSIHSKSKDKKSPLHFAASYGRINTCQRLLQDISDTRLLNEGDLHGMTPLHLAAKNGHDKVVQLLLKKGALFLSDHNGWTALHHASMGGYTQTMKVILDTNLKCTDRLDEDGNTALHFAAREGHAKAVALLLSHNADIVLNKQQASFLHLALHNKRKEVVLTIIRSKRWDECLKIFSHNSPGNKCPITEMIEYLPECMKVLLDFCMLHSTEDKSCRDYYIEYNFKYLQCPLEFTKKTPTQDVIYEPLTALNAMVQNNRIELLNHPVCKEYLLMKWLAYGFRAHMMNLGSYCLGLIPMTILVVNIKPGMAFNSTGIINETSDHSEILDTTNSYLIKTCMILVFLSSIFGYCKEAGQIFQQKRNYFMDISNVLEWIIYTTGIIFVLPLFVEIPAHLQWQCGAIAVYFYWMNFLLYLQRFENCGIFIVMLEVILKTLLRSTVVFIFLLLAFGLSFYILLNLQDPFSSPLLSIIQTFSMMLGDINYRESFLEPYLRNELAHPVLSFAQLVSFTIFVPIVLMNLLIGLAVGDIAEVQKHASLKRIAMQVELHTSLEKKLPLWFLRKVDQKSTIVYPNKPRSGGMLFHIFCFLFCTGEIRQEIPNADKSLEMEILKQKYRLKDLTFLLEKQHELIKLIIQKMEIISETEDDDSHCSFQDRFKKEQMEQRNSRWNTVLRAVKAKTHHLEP
Answers are plain numbers, in %.

Check out these entries, answers already filled in.
[
  {
    "Compound": "CC1=C(CC=O)C(C)(C)CCC1 [Beta-Cyclohomocitral]",
    "A1 activation, % of agonist value / %": 81.44
  },
  {
    "Compound": "CCCCCC1CCC(=O)O1 (centres unmarked) [Gamma-Nonalactone]",
    "A1 activation, % of agonist value / %": 33.32
  },
  {
    "Compound": "CC/C=C\\CCOC(=O)C(C)=O [Pyruvic caid cis-3-hexen-1-yl ester]",
    "A1 activation, % of agonist value / %": 45
  },
  {
    "Compound": "CC(C)=CCCC(C)=CCCC(C)=CC=O [Farnesal]",
    "A1 activation, % of agonist value / %": 97.58
  }
]

I would be grateful if you could provide A1 activation, % of agonist value for each of the following entries.
1. C=CCc1cccc(OC)c1O [o-Eugenol]
2. CC/C=C\CCCCO [5-Octen-1-ol, (Z)]
3. CC(=O)/C=C/C=C(\C)CCC=C(C)C [Pseudoionone]
4. CC(C=O)Cc1ccc2c(c1)OCO2 (centres unmarked) [Helional]

[A]
1: 128.4; 2: 62.30; 3: 105.5; 4: 78.00

* * *

target: human TRPV1 (Homo sapiens, UniProt Q8NER1, M315I/T336M); construct: expressed in transfected cells; pcDNA3 control cells; assay: Intracellular calcium (Fluo-4, FLIPR) activation of TRPV1 cells by GRAS compounds; type: cell-based; settings: read-out: V1 activation, % of agonist value;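 note: TRPV1-expressing cells, FLIPR fluorescence at 488/514 nm with baseline subtracted, sampled every 2 s for 10 min after adding compound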
Sequence (Q8NER1 whole entry M315I/T336M): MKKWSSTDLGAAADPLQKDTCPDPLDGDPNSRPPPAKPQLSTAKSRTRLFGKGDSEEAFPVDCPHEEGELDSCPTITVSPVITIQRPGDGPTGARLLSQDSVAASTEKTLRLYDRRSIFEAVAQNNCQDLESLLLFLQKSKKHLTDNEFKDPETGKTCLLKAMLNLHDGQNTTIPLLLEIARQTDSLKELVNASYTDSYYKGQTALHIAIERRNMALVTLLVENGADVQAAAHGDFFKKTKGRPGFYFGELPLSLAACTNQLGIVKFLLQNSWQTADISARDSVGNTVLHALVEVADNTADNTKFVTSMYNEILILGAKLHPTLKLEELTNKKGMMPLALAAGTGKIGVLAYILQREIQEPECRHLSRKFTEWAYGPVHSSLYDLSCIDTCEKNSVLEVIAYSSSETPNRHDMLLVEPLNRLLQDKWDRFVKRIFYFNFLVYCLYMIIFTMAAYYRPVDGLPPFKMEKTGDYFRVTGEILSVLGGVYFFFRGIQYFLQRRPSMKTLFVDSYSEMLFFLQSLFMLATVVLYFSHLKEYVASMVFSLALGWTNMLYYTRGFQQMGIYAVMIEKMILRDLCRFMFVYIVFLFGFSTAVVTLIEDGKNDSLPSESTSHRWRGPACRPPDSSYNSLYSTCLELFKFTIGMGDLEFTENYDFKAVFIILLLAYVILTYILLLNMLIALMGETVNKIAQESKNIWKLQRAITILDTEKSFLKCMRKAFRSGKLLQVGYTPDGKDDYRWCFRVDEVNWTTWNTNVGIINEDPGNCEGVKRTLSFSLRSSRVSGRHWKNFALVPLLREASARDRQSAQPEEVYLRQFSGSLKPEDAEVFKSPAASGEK
Measurement name: activation at 1000 µM
Answer with the number, then the unit.

[
  {
    "Compound": "CC(C)=CCC/C(C)=C/CO",
    "activation at 1000 µM": "42.2%"
  },
  {
    "Compound": "O=C1NS(=O)(=O)c2ccccc21",
    "activation at 1000 µM": "80.8%"
  }
]

// each listed compound needs a value for activation at 1000 µM
1. CCCCCCCCC(=O)NCc1ccc(O)c(OC)c1 [Nonivamide, N-Vanillylnonanamide]
2. CC(=O)OCc1ccc2c(c1)OCO2 [Piperonyl acetate]

[A]
1. 91.4%
2. 20.9%

* * *

biological target: human TRPA1 (Homo sapiens, UniProt O75762, K186N/R3C/R58T); construct: expressed in transfected cells; pcDNA3 control cells; assay: Intracellular calcium (Fluo-4, FLIPR) activation of TRPA1 cells by GRAS compounds; type: cell-based; conditions: Table 1(e); 1 mM; relative to AITC 30 μM;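 note: TRPA1-expressing cells, fluorescence read on a FLIPR Tetra (ex 488 nm, em 514 nm) every 2 s for 10 min after compound addition, baseline subtracted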
I'd appreciate it if you could supply A1 activation, % of agonist value values for the items below.
Numbers only, in %.

[
  {
    "Compound": "CC(C)CC=C(C=O)c1ccccc1 [5-Methy1-2-pheny1-2-hexenal]",
    "Unit spec": "%",
    "Reported result": 60.5
  },
  {
    "Compound": "C=CCCC(=O)/C=C/C1C(C)=CCCC1(C)C (stereo not drawn) [Allyl-alpha-ionone]",
    "Unit spec": "%",
    "Reported result": 52.6
  },
  {
    "Compound": "CC(=O)O[C@@H]1C[C@H](C)CC[C@H]1C(C)C [L-Menthyl acetate]",
    "Unit spec": "%",
    "Reported result": 44.88
  },
  {
    "Compound": "CC(C=O)Cc1ccc(C(C)C)cc1 (centres unmarked) [Cyclamen aldehyde]",
    "Unit spec": "%",
    "Reported result": 94.1
  }
]

As a next step, examine the compound that follows.
[Q] Recall and state the measured A1 activation, % of agonist value for CC1=CC(=O)[C@@H](C(C)C)CC1 [L-Piperitone] .
[A] 45
